Assay: qHTS assay to identify small molecule agonists of the peroxisome proliferator-activated receptor delta (PPARd) signaling pathway - cell viability counter screen (AID 743211); further: nearly all actives have a fitted effect of over 55% in size
Settings: PPARd-bla HEK293H viability, CellTiter-Glo luminescence, 17 h; series mostly up to 62.6 µM
Inconclusive results are not listed. The source made the active and inactive calls. The call rests on the fitted dose curve; in most records, active means well fitted cell-killing curve with a large enough effect in the repeat runs; inconclusive means weak or mixed curves; inactive means no such curve, though single readings can be large or run the other way.
Please reply with one of these outcomes: active, inactive

GET /call?item= Clc1ccc(C(Cl)(Cl)Cl)cc1 returns the recorded outcome of this test. inactive

GET /call?item= CCNc1nc(Cl)nc(NC(C)(C)C#N)n1 returns the recorded outcome of this test. inactive

GET /call?item= CC(C)COC(=O)c1ccccc1C(=O)OCC(C)C returns the recorded outcome of this test. inactive

GET /call?item= O=S(=O)(O)C(F)(F)C(F)(F)C(F)(F)C(F)(F)C(F)(F)C(F)(F)C(F)(F)C(F)(F)F returns the recorded outcome of this test. inactive

GET /call?item= CCC(=O)Nc1ccc(Cl)c(Cl)c1 returns the recorded outcome of this test. inactive

GET /call?item= CC(C)Nc1nc(Cl)nc(NC(C)C)n1 returns the recorded outcome of this test. inactive

GET /call?item= Oc1ccc(Cl)cc1Cl returns the recorded outcome of this test. inactive

GET /call?item= Oc1ccc(Cl)cc1Cc1ccccc1 returns the recorded outcome of this test. active

GET /call?item= CN(C)P(=O)(N(C)C)N(C)C returns the recorded outcome of this test. inactive

GET /call?item= ClCC(Cl)CCl returns the recorded outcome of this test. inactive

GET /call?item= CCCCOC(=O)COC(=O)c1ccccc1C(=O)OCCCC returns the recorded outcome of this test. inactive

GET /call?item= Cl returns the recorded outcome of this test. inactive

GET /call?item= CC(C)=CC1C(C(=O)OCN2C(=O)C3=C(CCCC3)C2=O)C1(C)C (centres undefined) returns the recorded outcome of this test. inactive

GET /call?item= COc1ccc(CO)cc1 returns the recorded outcome of this test. inactive
